procedure_summary: Toxicity against HIV-1 mB in MT-4 cells; Range 10 to >100 uM
Assay type: cell-based, MT4
condition_description: human, read-out: TC50 (the source's name)
property_measured: CC50 (µM)
Answers are plain numbers, in µM.

Name the reported CC50 value associated with the compound CC(C)[C@H](NC(=O)OCc1ccccc1)C(=O)N[C@@H](Cc1ccccc1)[C@H](O)[C@H](O)[C@H](Cc1ccccc1)NC(=O)[C@@H](NC(=O)OCc1ccccc1)C(C)C
10

---

Would you kindly list Ki for each of these compounds?
test_system: UniProt:Q72874
procedure_summary: Binding affinity for HIV-1 protease
Peptide text beside a SMILES is read from it.
One number for each entry, in nM.

# compound, u, Ki
data = [
    ("CC[C@H](C)[C@H](NC(=O)[C@@H](C[C@H](O)[C@H](CC1CCCCC1)NC(=O)[C@H](C)NC(C)(C)C)C(C)C)C(=O)NCc1ccccn1", "nM", 70),
    ("CC[C@H](C)[C@H](NC(=O)C1CCCN1C[C@H](C)[C@H](Cc1ccccc1)NC(=O)[C@H](CC(N)=O)NC(=O)[C@H](CC(C)C)NC(=O)[C@H](CO)NC(C)=O)C(=O)N[C@H](C(=O)OC)C(C)C (some centres undefined) (HELM PEPTIDE1{[ac].S.L.N.[C[C@@H](CN1CCCC1C(=O)[*:2])[C@H](Cc1ccccc1)N[*:1]].I.V.[CO[*:1]]}$$$$V2.0)", "nM", 0.66),
    ("CC(C)[C@H](NC(=O)[C@@H](NC(=O)C(Cc1ccccc1)CP(=O)(O)[C@@H](Cc1ccccc1)NC(=O)c1ccccc1)C(C)C)C(N)=O (some centres undefined)", "nM", 0.6),
]

Name the reported Ki value associated with the compound COC(=O)[C@@H](NC(=O)[C@@H](NC(=O)CC[C@@H](O)[C@@H](Cc1ccccc1)NC(=O)[C@H](C)NC(=O)[C@H](C)N)C(C)C)C(C)C (HELM PEPTIDE1{A.A.[O=C(CC[C@@H](O)[C@@H](Cc1ccccc1)N[*:1])[*:2]].V.V.[CO[*:1]]}$$$$V2.0)
18
